Recorded values, source the RNAGym collection of RNA variant scans (doi:10.1126/science.aae0568).

B1: tRNA (parent)
chain: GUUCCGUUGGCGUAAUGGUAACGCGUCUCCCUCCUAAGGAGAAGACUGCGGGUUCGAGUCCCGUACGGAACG

# Variants of: B1
# assay-protocol: yeast fitness relative to wild type (ratio to wild type); higher = fitter; tRNA-Arg(CCU), competitive growth, 37 C, YPD
Fewer inactive variants are shown than the library holds.
measured-endpoint: yeast fitness

Recorded result, C5U C11U C24U G44C , yeast fitness: ≤ 0.5

The reported value for A15U C24A G25A U47C G52C C61G in terms of yeast fitness is ≤ 0.5

Briefly, yeast fitness measured for C4U A15U U28C A57G C61G : ≤ 0.5

Value of yeast fitness reported for the variant G9A A15U C31G U53A C55U A57C C60G G67C is ≤ 0.5

yeast fitness recorded for this variant, A15U G23A C60G , is ≤ 0.5

Item: U13A C31A G44A A65G A70U | yeast fitness: ≤ 0.5

A15U C66U A70C yielded yeast fitness of 0.566

Per the records, this variant ( U2C G39C ) has yeast fitness equal to 0.774
